- Test system: UACC-62
- assayExplanation: NCI tumour cell line growth inhibition, 48 h
Active and inactive are the calls of the source. Cut-off read from the data, not from the text of the source: active = GI50 up to about 1.1 µM and inactive = higher.
Your response should consist of one outcome taken from 1 (active), 0 (inactive)

These solved cases illustrate the format of a correct answer.
# compound, assignedClass
records = [
    ("COC1=C(C)C(=O)C2=C(C1=O)C1C3CC4=C(C(=O)C(OC)=C(C)C4=O)C(CNC(=O)C(C)=O)N3C(C#N)C(C2)N1C (stereo not given)", 1),
    ("NC(=O)NC(=O)c1cccc(NC(=O)CF)c1", 0),
    ("O=C(NC1(C(=O)NNc2nnc(-c3ccccc3)c(-c3ccccc3)n2)C(c2ccccc2)C(c2ccccc2)=NN1c1ccccc1)c1ccccc1 (stereo not given)", 0),
    ("CN(CCC(=O)O)S(=O)(=O)c1ccccc1", 0),
]

# next compound below
### Prompt Please indicate how the test categorized CCN(CC)CCOc1ccc(N2Cc3ccccc3C2=O)cc1 .
### Response 0

* * *

Listing of recorded GI50 by entry.
- Tested on: U-251
- assayExplanation: NCI tumour cell line growth inhibition, 48 h
Activity calls are given as the source filed them. Rule as the data show it: active = GI50 up to about 1.1 µM and inactive = higher.

Illustrative cases are given below, each with its answer.
# molecule, quantityKind, value
data = [
    ("c1ccc(C[n+]2cccc(-c3cc4ccccc4[nH]3)c2)cc1", "GI50", "34.5 µM (inactive)"),
    ("CN(C)c1ccc(-c2c(C#N)c(S)n(NS(=O)(=O)c3ccccc3)c(=O)c2C#N)cc1", "GI50", "24.1 µM (inactive)"),
    ("COc1ccc(-n2cnc3c2=NC(C)(C)NC=3C(N)=O)c(OC)c1", "GI50", "> 100 µM (inactive)"),
    ("CCCCCCCCCC(O)CC(=O)c1c(O)cccc1O (configuration not stated)", "GI50", "36.7 µM (inactive)"),
]

Short answer on U-251 for CC(=O)OC1CCC2OOC1O2 (configuration not stated) , GI50: > 100 µM (inactive)

Short answer on U-251 for Nc1nc(Cl)c(/N=N/c2ccc(Cl)cc2)c(NCC2(CO)CCC(CCc3ccccc3)C2)n1 (configuration not stated) , GI50: 14.1 µM (inactive)

Short answer on U-251 for NC1=NCN(C2OC(CO)C(O)C2O)C(=O)N1 (configuration not stated) , GI50: 27.9 µM (inactive)

Short answer on U-251 for N#C/C(=C\c1c(Cl)cccc1Cl)c1ccccc1 , GI50: 4.39 µM (inactive)

Short answer on U-251 for COc1cc2nc(-c3cccs3)nc(N3C(c4ccc(O)cc4)=NNC(=O)c4ccccc43)c2cc1OC , GI50: 27.8 µM (inactive)

Short answer on U-251 for O=c1c2ccccc2nc(N/N=C/c2ccc(Cl)cc2)n1-c1ccccc1 , GI50: 46.6 µM (inactive)

Short answer on U-251 for CCN1C[C@]2(COC)[C@H](O)C[C@H](OC)[C@]34C1[C@H]([C@H](OC)[C@H]23)[C@]1(OC(C)=O)[C@H]2[C@@H](OC(=O)c3ccccc3)[C@](O)(C[C@H]24)[C@@H](OC)[C@@H]1O , GI50: > 100 µM (inactive)

Short answer on U-251 for COc1ccc(N)c(C(O)CCNC(C)=O)c1 (configuration not stated) , GI50: > 100 µM (inactive)

* * *

- Test system: PC-3
- assayExplanation: NCI tumour cell line growth inhibition, 48 h
The source made the active and inactive calls. Rule as the data show it: active = GI50 up to about 1.1 µM and inactive = higher.
quantityKind: GI50

In plain terms, CCCCCCCCC(=O)NCCN(CCN)C(=O)CCCCCCCC has a documented GI50 of 10.7 µM (inactive)

In plain terms, COC1(C)CP(=O)(OC(C)C)CC(C)=C1Cl (stereo not given) has a documented GI50 of 25.5 µM (inactive)

In plain terms, C=CCN1CCC2(CC1)NC(=O)c1ccccc1O2 has a documented GI50 of > 100 µM (inactive)

In plain terms, Cc1nc2c(n1-c1ccc(Br)cc1)C(=O)c1ccccc1C2=O has a documented GI50 of 1.26 µM (inactive)

In plain terms, CCOC(=O)/C=C(/OCC)[C@@H]1C(C(=O)c2ccc(Cl)cc2)[C@@H]1/C(=C\C(=O)OCC)OCC (stereo not given in full) has a documented GI50 of 5.89 µM (inactive)

In plain terms, O=[N+]([O-])/C(C(Cl)=C(Cl)Cl)=C(/Nc1cccc2cccnc12)n1nnc2ccccc21 has a documented GI50 of 19.2 µM (inactive)

In plain terms, CCCCN1CSC(=S)N(Cc2ccccc2)C1 has a documented GI50 of 63.5 µM (inactive)

In plain terms, O=C(NC1(C(=O)NNc2nnc(-c3ccccc3)c(-c3ccccc3)n2)C(c2ccccc2)C(c2ccccc2)=NN1c1ccccc1)c1ccccc1 (stereo not given) has a documented GI50 of > 100 µM (inactive)

In plain terms, Cc1cc2oc3c(ccc(=O)n3C)c(=O)c2c(C)c1Cl has a documented GI50 of 37.4 µM (inactive)

* * *

- System: SR
- assayExplanation: NCI tumour cell line growth inhibition, 48 h
Activity calls are given as the source filed them. Rule as the data show it: active = GI50 up to about 1.1 µM and inactive = higher.
quantityKind: GI50

Illustrative cases are given below, each with its answer.
# compound, GI50
rows = [
    ("Cc1ccc(S(=O)(=O)OC2C(O)C(O)OC2C(c2cc(O)c3c(c2O)C(=O)c2ccccc2C3=O)c2cc(O)c3c(c2O)C(=O)c2ccccc2C3=O)cc1 (centres undefined)", "3.08 µM (inactive)"),
    ("COc1ccc2oc(=O)c(-c3nc4ccccc4s3)cc2c1", "22 µM (inactive)"),
    ("O=c1[nH]c(=O)n(C/C=C/CBr)nc1Br", "3.08 µM (inactive)"),
    ("COc1ccc2c(c1)CC[C@@H]1C2CC[C@]2(C)C(=O)N(N)C(=O)CC12 (some centres undefined)", "38 µM (inactive)"),
    ("NC(=S)N/N=C\\CC(O)(C(F)(F)F)C(F)(F)F", "> 10 µM (inactive)"),
]

// next entry
In plain terms, OC(c1ccc(C(F)(F)F)cc1)C(F)(F)c1nc2ccccc2o1 (centres undefined) has a documented GI50 of > 100 µM (inactive)

* * *

- Tested on: OVCAR-3
- assayExplanation: NCI tumour cell line growth inhibition, 48 h
Calls of active or inactive are those of the source. Rule as the data show it: active = GI50 up to about 1.1 µM and inactive = higher.
quantityKind: GI50

Illustrative cases are given below, each with its answer.
# compound, GI50
rows = [
    ("COc1cc(CCC(=O)O)c2cc3ccccc3cc2c1O", "21.4 µM (inactive)"),
    ("c1ccc(N2N=NC3C4CC(C5c6ccccc6C45)C32)cc1 (stereo not given)", "26.6 µM (inactive)"),
    ("CCOC(=O)c1[nH]cc(C)c1-c1ccc2c(-c3ccccc3)nc3ccccc3n12", "4.13 µM (inactive)"),
    ("Nc1nc(Nc2ccc(Cl)cc2)sc1C(=O)c1cc2ccccc2oc1=O", "4.84 µM (inactive)"),
]

In plain terms, COc1cc(C(C)(C)C)c(OC(=O)/C=C/C(=O)O/C=C/[N+](=O)[O-])c(C(C)(C)C)c1 has a documented GI50 of 32.7 µM (inactive)

In plain terms, O=C(O)c1cc2ccccc2c(/N=N\c2cc(C(F)(F)F)ccc2Cl)c1O has a documented GI50 of 22.5 µM (inactive)

In plain terms, C/N=C(\N)c1ccc(NC(=N)c2ccc(C(=N)Nc3ccc(/C(N)=N/C)cc3)cc2)cc1 has a documented GI50 of > 100 µM (inactive)

In plain terms, N=C(NNS(=O)(=O)c1ccccc1)Oc1ccc(Cl)cc1 has a documented GI50 of 78.5 µM (inactive)

In plain terms, CC(=O)NC1C(OCc2ccccc2)OC(CO)C(O)C1OCC(=O)N[C@@H](C)C(=O)N[C@H](CCC(=O)NCCCNc1ccc([N+](=O)[O-])c2[nH]c3ccccc3c(=O)c12)C(N)=O (stereo not given in full) has a documented GI50 of > 100 µM (inactive)

In plain terms, [O-][N+]1=C(c2ccccc2)COc2ccccc21 has a documented GI50 of > 100 µM (inactive)

In plain terms, COC(=O)Nc1nc2cc(NS(=O)(=O)c3ccc(Cl)cc3)ccc2[nH]1 has a documented GI50 of 3.29 µM (inactive)

In plain terms, O=C(NC1(C(=O)NNc2nnc(-c3ccccc3)c(-c3ccccc3)n2)C(c2ccccc2)C(c2ccccc2)=NN1c1ccccc1)c1ccccc1 (stereo not given) has a documented GI50 of > 100 µM (inactive)

In plain terms, CC(C)C(Nc1c2ccccc2[n+](C)c2ccccc12)C(=O)O (stereo not given) has a documented GI50 of > 100 µM (inactive)

In plain terms, COc1cc(Cc2nccc3cc(OC)c(OC)cc23)c(C(C)=O)cc1OC has a documented GI50 of 34.5 µM (inactive)

In plain terms, Cc1ccc(/C=N/NS(=O)(=O)c2ccc(/C=C3\NC(=O)NC3=O)cc2)cc1 has a documented GI50 of > 100 µM (inactive)

* * *

Listing of recorded GI50 by entry.
- System: SK-MEL-2
- assayExplanation: NCI tumour cell line growth inhibition, 48 h
Activity calls are given as the source filed them. Rule as the data show it: active = GI50 up to about 1.1 µM and inactive = higher.

# molecule, GI50
rows = [
    ("O=[N+]([O-])c1ccc2c(/N=N/c3c(O)ccc4ccccc34)c(O)cc(S(=O)(=O)O)c2c1", "14.2 µM (inactive)"),
    ("COc1ccc([Se][Se]c2ccc(OC)cc2OC)c(OC)c1", "4.08 µM (inactive)"),
    ("CC(C)C(Nc1c2ccccc2[n+](C)c2ccccc12)C(=O)O (stereo unspecified)", "> 100 µM (inactive)"),
]

In plain terms, O=C1C(=O)N(C2C3CC4CC(C3)CC2C4)C(=O)C(=O)C1c1nc2ccccc2o1 (stereo unspecified) has a documented GI50 of > 100 µM (inactive)

In plain terms, COC(=O)C(=O)C(C(=O)C(=O)Nc1ccccc1C(N)=O)c1nc2ccc(C(=O)c3ccccc3)cc2nc1O (stereo unspecified) has a documented GI50 of > 100 µM (inactive)

In plain terms, COc1cc(S(=O)(=O)Nc2nc(-c3ccc(N4C(=O)CSC4c4cccs4)cc3)cs2)ccc1Cl (stereo unspecified) has a documented GI50 of 57.5 µM (inactive)

In plain terms, O=C(O)CCCn1nnc2c(=O)[nH][nH]c(=O)c21 has a documented GI50 of > 100 µM (inactive)

In plain terms, C=C[C@]1(C)C[C@@H](OC(=O)CO)[C@@]2(C)[C@H](C)CC[C@]3(CCC(=O)[C@H]32)[C@@H](C)[C@@H]1O has a documented GI50 of > 59.3 µM (inactive)

In plain terms, Cc1ccc(C(=O)Nc2ccc(CP(=O)(O)O)cc2CP(=O)(O)O)cc1N has a documented GI50 of > 100 µM (inactive)

In plain terms, NC(=S)N1N=C2c3ccccc3CC[C@H]2[C@@H]1c1cccs1 has a documented GI50 of 22.1 µM (inactive)

In plain terms, NC(=O)NC(=O)c1cccc(NC(=O)CF)c1 has a documented GI50 of > 100 µM (inactive)

In plain terms, CCCCNC1=C2C(=O)NN=C2CO1 has a documented GI50 of > 100 µM (inactive)

In plain terms, CC(C)c1cc(=O)[nH]c2cc(N)ccc12 has a documented GI50 of > 100 µM (inactive)

In plain terms, C[N+](C)([O-])Cc1cc(-c2ccccc2)ccc1O has a documented GI50 of > 100 µM (inactive)

In plain terms, CCOP(=O)(OCC)C1=C(c2ccccc2)OC(N)=C(C#N)C1c1ccc(Cl)cc1 (stereo unspecified) has a documented GI50 of > 100 µM (inactive)

In plain terms, COc1cc(OCc2ccc3oc(=O)c(-c4ccccc4)nc3c2)cc(OC)c1OC has a documented GI50 of > 100 µM (inactive)

In plain terms, CCN(CC)CC1CCCCN1CC(=O)N1c2ccc(Br)cc2C(=O)Nc2cccnc21 (stereo unspecified) has a documented GI50 of > 100 µM (inactive)
